System: parakeratosis and skin roughness caused by oleic acid on the back of hairless mice
runDescription: Parakeratosis inhibition effect test: oleic acid applied to the back of hairless mice, visual skin roughness and parakeratosis level
Assay type: in vivo, hairless mice (HR-1)
assaySetup: sample 3 weight % in aqueous 30 weight % ethanol; after 10 weight % oleic acid, 3 days; range 1.0 to 3.0, higher = severer; control 2.0
Recorded Evaluation Parakeratosis (mean of 4 mice), one value per entry.
Simply state the number, no unit and no words.

Quick one: Evaluation Parakeratosis (mean of 4 mice) for Cl.NCC(=O)OCc1ccccc1 [glycine benzyl ester HCL, glycine benzyl ester hydrochloride] ?
1.2

====

Tested on: parakeratosis and skin roughness caused by oleic acid on the back of hairless mice
runDescription: Parakeratosis inhibition effect test: oleic acid applied to the back of hairless mice, visual skin roughness and parakeratosis level
Type: in vivo, hairless mice (HR-1)
assaySetup: sample 3 weight % in aqueous 30 weight % ethanol; after 10 weight % oleic acid, 3 days; range 1.0 to 3.0, higher = severer; control 2.0
Where a SMILES comes first, the peptide text is derived from it.
Recorded Evaluation Parakeratosis (mean of 4 mice), one value per entry.
Simply state the number, no unit and no words.

Quick one: Evaluation Parakeratosis (mean of 4 mice) for NCC(=O)NCC(=O)O [glycylglycine] (H-Gly-Gly-OH) ?
1.2

Now give it for NCCC(=O)O too.
1.5

Now give it for CCCOC(=O)CN.Cl [glycine n-propyl ester HCL, glycine n-propyl ester hydrochloride] too.
1.4

Now give it for CCOC(=O)CCN.Cl [beta-alanine ethyl ester HCL, beta-alanine ethyl-ester hydrochloride] too.
1.2

Now give it for CC(C)(C)OC(=O)CN.Cl [glycine t-butyl ester HCL, glycine t-butyl ester hydrochloride] too.
1.5
